# Tested on: CCRF-CEM
# experiment notes: NCI tumour cell line growth inhibition, 48 h
Calls of active or inactive are those of the source. Rule as the data show it: active = GI50 up to about 1.1 µM and inactive = higher.
Outcome codes: True = active, False = inactive

COc1cc(/C=C/C(=O)c2c([O-])on[n+]2-c2ccccc2)ccc1O    False
NS(=O)(=O)c1ccc(NC(=O)CC(=O)Nc2ccc(S(N)(=O)=O)cc2)cc1    False
O=C1NC(=O)[C@@H](OCC2CCCCC2)[C@@H]2OCC3OC(C(O)C3O)C12 (some centres not stated)    False
COc1cc(CNc2nc3ccccc3nc2C(=O)O)cc(OC)c1OC    False
COC(=O)C1CCC(=O)N1C(c1ccccc1)c1cc(OC)c(OC)c(OC)c1 (configuration not stated)    False
O=P(O)(O)C1CCCC(P(=O)(O)O)N1 (configuration not stated)    False
Cc1ccc(S(=O)(=O)NCc2cccc([N+](=O)[O-])c2)cc1    False
O=C1Cc2c([nH]c3ccc(C(=O)O)cc23)-c2ccccc2N1    False
CSc1cnc2ccccc2c1Sc1cn(C)c2ccccc2c1=O    False
COC(=O)/C=C(\C(=O)OC)c1c2c3c(cc(OC)c(OC)c3c3ccccc13)CCN2C    False
CCOc1snc(C(Cl)(Cl)Cl)c1Cl    False
CC1=CC(C)(C)[C@H]2O[C@@]3(O)C[C@]4(C)[C@H]5C[C@@](C(C)C)(O[C@H]4c4ccoc4)O[C@H]4[C@]5(C3)O[C@@]1(O)[C@]24O    False
CNCCCNC1(c2cc3ccccc3s2)CCCCC1    False
Cc1ccc2ccc(O)cc2c1    False
Nc1nc2c(N)cc(C(F)(F)F)cc2nc1-c1ccccc1    False
Cn1c(=O)c2[nH]cnc2n(CC(=O)O)c1=O    False
COc1cc2c3c(c1)c1cc(OC)c(OC)cc1c[n+]3CC2    False
CN1c2ccccc2N(C(=O)c2ccccc2)C(CC(=O)O)c2cccn21 (configuration not stated)    False
CCN(CC)C(=S)/N=C(\SC(=S)N(CC)CC)c1ccccc1    True
OCC(CO)C1c2cccc3ccc4cccc1c4c23    False
O=C(CCc1nnc(S)[nH]1)Nc1ccc(Cl)c(Cl)c1    False
Cc1ccc(-c2cc(-c3ccco3)c(C#N)c(=O)n2C2OC(CO)C(O)C(O)C2O)cc1 (configuration not stated)    False

###

# GI50 annotations
# Tested on: OVCAR-4
# experiment notes: NCI tumour cell line growth inhibition, 48 h
Active and inactive are the calls of the source. Cut-off read from the data, not from the text of the source: active = GI50 up to about 1.1 µM and inactive = higher.
parameter: GI50

Cc1cc(N2CCOCC2)nc2ccc(Cc3ccc4nc(N5CCOCC5)cc(C)c4c3)cc12    > 100 µM (inactive)
C=CCN(c1cc(OCc2ccccc2)c(NC(C)=O)cc1[N+](=O)[O-])S(C)(=O)=O    > 100 µM (inactive)
C=C(C)C1CC2=C(O1)C(=O)c1cccc(O)c1C2=O (centres undefined)    0.327 µM (active)
COc1cc2c(/C=C3/C(=O)Nc4ccc(O)cc43)c(Cl)n(Cc3ccccc3)c2cc1C    4.2 µM (inactive)
COc1cc2[nH]c3c(c2cc1OC)CCN[C@]31CC[C@]2(CC3c4c(cc(OC)c(O)c42)CCN3C)C[C@H]1OC (some centres undefined)    23.8 µM (inactive)
COC1=C(C)C(=O)C2=C(C1=O)C1C3CC4=C(C(=O)C(OC)=C(C)C4=O)C(CNC(=O)C(C)O)N3C(C#N)C(C2)N1C (centres undefined)    0.026 µM (active)
CSc1cc(Cl)c(C)cc1S(=O)(=O)NC(=O)NNc1ccc(F)c(Cl)c1    > 100 µM (inactive)
COC(=O)c1ccccc1/C=C1\Cc2c(C)c3c(c(C)c2C1=O)CCC3    30.1 µM (inactive)
CNC(=S)N/N=C/c1cccc(C)n1    > 59.7 µM (inactive)

Data origin, for the record: ChEMBL document CHEMBL1201862
